// provenance: patent US9920061B2

assay: Compound solubility in water; assay type: physicochemical
quantity kind: solubility (µg/mL)

Recorded results for 4 compounds are shown here.
compound: Cc1cc(-c2cccc(C#N)c2)nc2c(C(=O)N[C@@H](C)C3CC3)ncn12
result units: µg/mL
measured: 10.1
//
compound: Cc1cc(-c2cccnc2)nc2c(C(=O)NC(C)(C)C)ncn12
result units: µg/mL
measured: 24.5
//
compound: CCOc1cc(C)n2cnc(C(=O)NC(c3ccc(F)cc3)C(F)(F)F)c2n1 (stereo not drawn)
result units: µg/mL
measured: 1.1
//
compound: Cc1cc(-c2ccc(F)cc2)nc2c(C(=O)NC(C)(C)C3CC3)ncn12
result units: µg/mL
measured: 1.6

A. Cc1cc(-c2cncs2)nc2c(C(=O)NC(C)(C)C3CC3)ncn12
B. Cc1cc(-c2ncc[nH]2)nc2c(C(=O)NC(C)(C)C3CC3)ncn12
C. CCOc1cccc(-c2cc(C)n3cnc(C(=O)NC(C)C(F)(F)F)c3n2)c1 (stereo not drawn)
D. Cc1cc(Oc2cccc(F)c2)nc2c(C(=O)N[C@@H](C)C3CC3)ncn12
E. Cc1cc(-c2cc(F)cc(F)c2)nc2c(C(=O)NC(C)(C)C)ncn12
Query: List by increasing solubility. Order the labels as requested and give them as your answer.
Reply: E, C, D, B, A

====

assay: Compound solubility in water; type: physicochemical; settings: in water
quantity kind: solubility (µg/mL)

a. COc1cccc(-c2cc(C)n3cnc(C(=O)N[C@@H](C)C4CC4)c3n2)c1C#N [IV-68]
b. Cc1cc(C(=O)Nc2ccccc2)nc2c(C(=O)NC(C3CC3)C(F)(F)F)ncn12 (stereo not shown) [IV-100]
Query: I'd appreciate it if you could identify which of a and b has the greater solubility. State the label of the item chosen.
Reply: b

====

Target: glucocerebrosidase (Gcase) (Homo sapiens, UniProt P04062)
Sequence (P04062 40-536): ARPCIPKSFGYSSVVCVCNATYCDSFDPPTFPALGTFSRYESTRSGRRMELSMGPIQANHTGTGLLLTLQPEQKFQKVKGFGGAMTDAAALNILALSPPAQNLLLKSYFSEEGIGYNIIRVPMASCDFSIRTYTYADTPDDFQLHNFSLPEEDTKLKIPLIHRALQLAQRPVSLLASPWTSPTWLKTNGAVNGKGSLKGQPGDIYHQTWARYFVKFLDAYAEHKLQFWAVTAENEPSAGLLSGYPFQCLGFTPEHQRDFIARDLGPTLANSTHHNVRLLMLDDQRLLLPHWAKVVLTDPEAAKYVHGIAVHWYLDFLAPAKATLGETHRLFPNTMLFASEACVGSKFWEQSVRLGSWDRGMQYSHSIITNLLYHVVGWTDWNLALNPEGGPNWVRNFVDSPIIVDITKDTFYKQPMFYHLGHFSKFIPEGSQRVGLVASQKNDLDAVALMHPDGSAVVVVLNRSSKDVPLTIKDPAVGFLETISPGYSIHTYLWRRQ
Assay: Glucocerebrosidase (Gcase) activation assay, 4-methylumbelliferyl-beta-D-glucopyranoside substrate, with saposin C
Assay type: biochemical
Details: test compound at 1.0 μM; read-out: Percent Gcase Activation, 1 μM Test Compound
quantity kind: activation at 1 µM

compound: Cc1sncc1-c1cc(C)n2cnc(C(=O)N[C@@H](C3CC3)C(F)(F)F)c2n1
activation at 1 µM: > 60%

Query: Item under review: COc1c(C#N)cccc1-c1cc(C)n2cnc(C(=O)N[C@@H](C)C3CC3)c2n1 . Reported activation at 1 µM?
Reply: < 30%

Query: Another compound: Cc1cc(-c2cccc(C#N)n2)nc2c(C(=O)NC(C3CC3)C(F)(F)F)ncn12 (stereo not drawn)
Reply: 30 to 60%

Query: Query CCc1cc(N2CCN(C(C)C)C2=O)nc2c(C(=O)NC(C3CC3)C(F)(F)F)ncn12 (stereo not drawn) next
Reply: > 60%

Query: Further, for Cc1cc(C#N)c(-c2cc(C)n3cnc(C(=O)N[C@@H](C4CC4)C(F)(F)F)c3n2)o1 ?
Reply: > 60%

Query: Now consider Cc1cc(-c2ccc3ocnc3c2)nc2c(C(=O)NC(C)C(F)(F)F)ncn12 (stereo not drawn) and answer again.
Reply: > 60%

Query: Another compound: Cc1nscc1-c1cc(C)n2cnc(C(=O)N[C@H](C3CC3)C(F)(F)F)c2n1
Reply: > 60%

Query: // next record Cc1cc(-c2cc(C#N)cs2)nc2c(C(=O)NC(C3CC3)C(F)(F)F)ncn12 (stereo not drawn)
Reply: > 60%

Query: Then Cc1cc(-c2ccoc2)nc2c(C(=O)NC(C3CC3)C(F)(F)F)ncn12 (stereo not drawn) ?
Reply: > 60%

====

Listed next: entries and their corresponding activation at 0.1 µM.
biological target: UniProt P04062; assay: Glucocerebrosidase (Gcase) activation assay, 4-methylumbelliferyl-beta-D-glucopyranoside substrate, with saposin C; assay type: biochemical; conditions: test compound at 0.1 μM; read-out: Percent Gcase Activation, 0.1 μM Test Compound

Solved entries (count: 4):
compound: Cc1cc(-c2cc(C#N)cs2)nc2c(C(=O)NC(C3CC3)C(F)(F)F)ncn12 (centres unmarked)
activation at 0.1 µM: > 20%

compound: Cc1cc(-c2cnsc2)nc2c(C(=O)N[C@H](C3CC3)C(F)(F)F)ncn12
activation at 0.1 µM: 10 to 20%

compound: CCCCO[C@H]1C[C@H]2CC[C@@H](C1)[C@@H]2NC(=O)c1ncn2c(C)cc(COC)nc12
activation at 0.1 µM: < 10%

compound: Cc1cc(-c2ccc(F)cc2)nc2c(C(=O)N[C@H](C3CC3)C(F)(F)F)ncn12
activation at 0.1 µM: > 20%

Query: GET /values?readout=activation at 0.1 µM&system=UniProt P04062&item= COc1c(F)cccc1-c1cc(C)n2cnc(C(=O)NC(C3CC3)C(F)(F)F)c2n1 (centres unmarked)
Reply: 10 to 20%

Query: Can you handle CCc1cc(N2CCN(CC(F)(F)F)C2=O)nc2c(C(=O)NC(C3CC3)C(F)(F)F)ncn12 (centres unmarked) next?
Reply: 10 to 20%

Query: Same again, this time with CCc1cc(-c2ccsn2)nc2c(C(=O)NC(C3CC3)C(F)(F)F)ncn12 (centres unmarked)
Reply: > 20%

Query: Another: CCc1cc(-c2ccns2)nc2c(C(=O)NC(C)(C)C)ncn12
Reply: 10 to 20%

====

test: Compound solubility in water; assay type: physicochemical; conditions: in water
quantity kind: solubility (µg/mL)

compound: Cc1cc(-c2csc(C#N)c2)nc2c(C(=O)NC(C3CC3)C(F)(F)F)ncn12 (centres unmarked)
quantity kind: solubility
result units: µg/mL
measured: 9.2
--
compound: Cc1cc(-c2ccc(C#N)o2)nc2c(C(=O)NC(C3CC3)C(F)(F)F)ncn12 (centres unmarked)
quantity kind: solubility
result units: µg/mL
measured: 0.7
--
compound: COc1c(F)cccc1-c1cc(C)n2cnc(C(=O)N[C@@H](C)C3CC3)c2n1
quantity kind: solubility
result units: µg/mL
measured: 16
--
compound: COc1c(C#N)cccc1-c1cc(C)n2cnc(C(=O)NC(C3CC3)C(F)(F)F)c2n1 (centres unmarked)
quantity kind: solubility
result units: µg/mL
measured: 13.5
--
compound: Cc1cc(-c2ccc3c(c2)OCO3)nc2c(C(=O)NC(C3CC3)C(F)(F)F)ncn12 (centres unmarked)
quantity kind: solubility
result units: µg/mL
measured: 0.5
--
compound: Cc1cc(-c2cccc(OC3CC3)n2)nc2c(C(=O)NC(C3CC3)C(F)(F)F)ncn12 (centres unmarked)
quantity kind: solubility
result units: µg/mL
measured: 2.1

P. Cc1cc(-c2ccsc2C#N)nc2c(C(=O)NC(C3CC3)C(F)(F)F)ncn12 (centres unmarked)
Q. Cc1cc(-c2cccc(-c3ncncn3)c2)nc2c(C(=O)NC(C3CC3)C(F)(F)F)ncn12 (centres unmarked)
Query: Hi there! Just curious which has the higher solubility between P and Q . Give the label of your selection.
Reply: Q
(Q: 0.5 µg/mL, P: 0.3 µg/mL)

====

Molecular target: glucocerebrosidase (Gcase) (Homo sapiens, UniProt P04062)
Sequence (P04062 40-536): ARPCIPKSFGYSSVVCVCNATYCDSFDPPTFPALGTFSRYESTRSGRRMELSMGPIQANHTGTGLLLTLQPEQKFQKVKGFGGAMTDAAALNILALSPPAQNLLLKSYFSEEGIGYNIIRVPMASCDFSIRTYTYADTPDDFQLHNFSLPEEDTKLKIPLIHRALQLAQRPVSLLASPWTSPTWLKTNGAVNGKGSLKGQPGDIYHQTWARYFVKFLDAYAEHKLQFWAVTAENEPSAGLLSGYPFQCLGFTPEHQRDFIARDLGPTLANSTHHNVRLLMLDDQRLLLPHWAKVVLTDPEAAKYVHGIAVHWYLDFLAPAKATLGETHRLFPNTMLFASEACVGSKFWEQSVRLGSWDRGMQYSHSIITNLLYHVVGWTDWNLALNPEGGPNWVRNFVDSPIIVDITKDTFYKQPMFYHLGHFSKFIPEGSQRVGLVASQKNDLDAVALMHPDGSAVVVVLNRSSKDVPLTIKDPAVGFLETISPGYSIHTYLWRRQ
Assay: Glucocerebrosidase (Gcase) activation assay, 4-methylumbelliferyl-beta-D-glucopyranoside substrate, with saposin C
Assay type: biochemical
Settings: 1 μM test compound; read-out: Percent Gcase Activation 1 μM Test Compound
// activation at 1 µM lookup, one value per entry

Answered examples (3):
compound: Cc1cc(-c2ccc(C#N)c(O)c2)nc2c(C(=O)NC(C3CC3)C(F)(F)F)ncn12 (stereo not drawn)
activation at 1 µM: < 30%
//
compound: Cc1cc(Oc2ccncc2)nc2c(C(=O)N[C@@H](C)C3CC3)ncn12
activation at 1 µM: < 30%
//
compound: CCOc1cc(C)n2cnc(C(=O)NC(c3ccc(F)cc3)C(F)(F)F)c2n1 (stereo not drawn)
activation at 1 µM: > 60%

Query: Query (compound): Cc1cc(-c2ncccn2)nc2c(C(=O)NC(C)(C)C3CC3)ncn12 ; field requested: activation at 1 µM
Reply: < 30%

Query: Try this compound too: Cc1cc(-c2cn(C)nn2)nc2c(C(=O)NC(C)(C)C3CC3)ncn12
Reply: < 30%

Query: Let us now turn to CO[C@H]1CC[C@@H](C(C)(C)NC(=O)c2ncn3c(C)cc(-c4cccnc4)nc23)CC1
Reply: 30 to 60%

Query: Cool, now C#CC(C)(C)NC(=O)c1ncn2c(C)cc(-c3cccc(OC)n3)nc12
Reply: 30 to 60%

Query: What about this compound? COc1cc(F)cc(-c2cc(C)n3cnc(C(=O)NC(C)(C)C)c3n2)c1
Reply: > 60%

Query: Please answer likewise for COc1cc(-c2cc(C)n3cnc(C(=O)NC(C4CC4)C4CC4)c3n2)ccc1F
Reply: > 60%

Query: Can you check Cc1cc(-c2cncnc2)nc2c(C(=O)NC(C)(C)C3CC3)ncn12 next?
Reply: < 30%
